Assignment: determine reported Ratio Ki for the given molecules.
# Organism: Homo sapiens
# RUN DESCRIPTION: Selectivity index, ratio of Ki for alpha1 adrenergic receptor (unknown origin) to Ki for 5HT1AR (unknown origin)
// return just the number, without any unit appended

Asked: Using the record for Cn1c(=O)cnn(CCCCN2CCN(c3ccccc3OCCCF)CC2)c1=O , report its Ratio Ki.
Given back: 42

Asked: Look at this molecule and give its reported Ratio Ki. COc1ccccc1N1CCN(CCCCn2ncc(=O)n(C)c2=O)CC1
Given back: 45

Asked: Which Ratio Ki value belongs to Cn1c(=O)cnn(CCCCN2CCN(c3ccccc3)CC2)c1=O ?
Given back: 25

* * *

# TARGET SYSTEM: 5-hydroxytryptamine receptor 1A (Homo sapiens)
# Sequence (P08908 whole entry): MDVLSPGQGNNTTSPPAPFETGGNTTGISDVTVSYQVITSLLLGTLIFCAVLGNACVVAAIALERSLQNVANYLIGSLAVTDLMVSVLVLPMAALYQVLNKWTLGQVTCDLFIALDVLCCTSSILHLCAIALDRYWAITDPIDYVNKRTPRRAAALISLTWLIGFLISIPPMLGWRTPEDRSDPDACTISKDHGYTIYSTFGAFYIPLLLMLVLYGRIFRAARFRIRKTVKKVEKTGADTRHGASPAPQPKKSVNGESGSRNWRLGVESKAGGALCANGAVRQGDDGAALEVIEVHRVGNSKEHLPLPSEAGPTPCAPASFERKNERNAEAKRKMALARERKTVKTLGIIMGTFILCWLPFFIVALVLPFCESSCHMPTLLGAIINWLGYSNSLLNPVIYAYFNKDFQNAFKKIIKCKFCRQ
MEASURED PARAMETER: pKi
Interpret pKi as the negative base-10 log of the concentration measured in mol/L.

Asked: Endpoint output: pKi of Cn1c(=O)cnn(CCCCN2CCN(c3c(F)cccc3C#N)CC2)c1=O . Value?
Given back: 8.32

Asked: Reported pKi, compound Cn1c(=O)cnn(CCCCN2CCN(c3c(Br)cccc3C#N)CC2)c1=O : ____
Given back: 7.55

Asked: Name the recorded pKi for Cn1c(=O)cnn(CCCCN2CCN(c3ccccc3S)CC2)c1=O .
Given back: 8.10

Asked: For the compound Cn1c(=O)cnn(CCCCN2CCN(c3ccccc3O)CC2)c1=O , what pKi is on record?
Given back: 8.77

Asked: Returns the measured pKi for the input compound. Input: CN(C)c1ccccc1N1CCN(CCCCn2ncc(=O)n(C)c2=O)CC1
Given back: 6.74

Asked: pKi for Cn1c(=O)cnn(CCCCN2CCN(c3cccc4ccc(O)cc34)CC2)c1=O ?
Given back: 9.36
